Biological target: fMet-Leu-Phe receptor (Homo sapiens, UniProt P21462)
Sequence (P21462 whole entry): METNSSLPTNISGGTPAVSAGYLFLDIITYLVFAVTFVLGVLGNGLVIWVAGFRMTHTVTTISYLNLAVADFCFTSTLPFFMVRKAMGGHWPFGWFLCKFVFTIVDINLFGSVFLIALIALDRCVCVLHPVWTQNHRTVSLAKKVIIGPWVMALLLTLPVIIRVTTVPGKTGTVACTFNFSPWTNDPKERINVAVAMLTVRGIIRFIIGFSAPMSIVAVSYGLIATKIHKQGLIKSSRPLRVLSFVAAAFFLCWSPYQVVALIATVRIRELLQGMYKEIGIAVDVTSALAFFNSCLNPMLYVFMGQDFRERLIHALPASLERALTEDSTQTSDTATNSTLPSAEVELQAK
pKi: −log10 of the molar value. Square brackets hold non-standard residues; d marks the D form. Peptide text beside a SMILES is read from it.
Listed here are molecules together with their documented pKi.
property_label: pKi

>>> recorded_measurement("CSCC[C@H](NC(=O)[C@H](Cc1ccc(O)cc1)NC(=O)[C@H](Cc1c[nH]cn1)NC(=O)[C@@H](N)Cc1c[nH]c2ccccc12)C(=O)N[C@H](C(=O)N[C@H](CCSC)C(N)=O)C(C)C [WHYMVm-NH2] (H-WHYMV[dM]-NH2)")
7.49
>>> recorded_measurement("CSCC[C@H](NC(=O)[C@@H](N)Cc1ccc(O)cc1)C(=O)N[C@H](C(=O)N[C@H](CCSC)C(N)=O)C(C)C [YMVm-NH2] (H-YMV[dM]-NH2)")
6.25
>>> recorded_measurement("CSCC[C@H](NC(=O)[C@H](CCC(=O)O)NC(=O)[C@H](CCCCN)NC(=O)[C@@H](N)Cc1c[nH]c2ccccc12)C(=O)N[C@H](C(=O)N[C@H](CCSC)C(N)=O)C(C)C [WKEMVm-NH2] (H-WKEMV[dM]-NH2)")
5.88
>>> recorded_measurement("CSCC[C@H](NC(=O)[C@H](CC(=O)O)NC(=O)[C@H](CCCCN)NC(=O)[C@@H](N)Cc1c[nH]c2ccccc12)C(=O)N[C@H](C(=O)N[C@H](CCSC)C(N)=O)C(C)C [WKDMVm-NH2] (H-WKDMV[dM]-NH2)")
5.89
>>> recorded_measurement("CSCC[C@H](NC(=O)[C@H](Cc1ccc(O)cc1)NC(=O)[C@H](CC(=O)O)NC(=O)[C@@H](N)Cc1c[nH]c2ccccc12)C(=O)N[C@H](C(=O)N[C@H](CCSC)C(N)=O)C(C)C [WDYMVm-NH2] (H-WDYMV[dM]-NH2)")
7.00
>>> recorded_measurement("CSCC[C@H](NC(=O)[C@H](Cc1c[nH]c2ccccc12)NC(=O)[C@H](CCCCN)NC(=O)[C@@H](N)Cc1c[nH]c2ccccc12)C(=O)N[C@H](C(=O)N[C@H](CCSC)C(N)=O)C(C)C [WKWMVm-NH2] (H-WKWMV[dM]-NH2)")
7.72
>>> recorded_measurement("CSCC[C@H](NC(=O)[C@H](Cc1ccc(O)cc1)NC(=O)[C@H](CCCNC(=N)N)NC(=O)[C@@H](N)Cc1c[nH]c2ccccc12)C(=O)N[C@H](C(=O)N[C@H](CCSC)C(N)=O)C(C)C [WRYMVm-NH2] (H-WRYMV[dM]-NH2)")
7.26

====

Target protein (sequence): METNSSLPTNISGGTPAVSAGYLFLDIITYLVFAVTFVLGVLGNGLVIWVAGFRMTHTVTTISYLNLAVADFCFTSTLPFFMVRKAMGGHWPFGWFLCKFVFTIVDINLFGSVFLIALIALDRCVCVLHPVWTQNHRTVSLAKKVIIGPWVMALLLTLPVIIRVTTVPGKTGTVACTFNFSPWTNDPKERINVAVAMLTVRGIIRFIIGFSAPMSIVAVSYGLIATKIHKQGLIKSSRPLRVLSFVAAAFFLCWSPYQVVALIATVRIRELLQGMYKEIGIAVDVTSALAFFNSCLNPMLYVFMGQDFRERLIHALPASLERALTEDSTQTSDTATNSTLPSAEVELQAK
pKi: −log10 of the molar value. Square brackets hold non-standard residues; d marks the D form. Peptide text beside a SMILES is read from it.
property_label: pKi

>>> recorded_measurement("CSCC[C@H](NC(=O)[C@H](Cc1ccc(O)cc1)NC(=O)[C@H](CCC(=O)O)NC(=O)[C@@H](N)Cc1c[nH]c2ccccc12)C(=O)N[C@H](C(=O)N[C@H](CCSC)C(N)=O)C(C)C [WEYMVm-NH2] (H-WEYMV[dM]-NH2)")
6.49
>>> recorded_measurement("CSCC[C@H](NC(=O)[C@H](Cc1ccccc1)NC(=O)[C@H](CCCCN)NC(=O)[C@@H](N)Cc1c[nH]c2ccccc12)C(=O)N[C@H](C(=O)N[C@H](CCSC)C(N)=O)C(C)C [WKFMVm-NH2] (H-WKFMV[dM]-NH2)")
7.74

====

Target protein (sequence): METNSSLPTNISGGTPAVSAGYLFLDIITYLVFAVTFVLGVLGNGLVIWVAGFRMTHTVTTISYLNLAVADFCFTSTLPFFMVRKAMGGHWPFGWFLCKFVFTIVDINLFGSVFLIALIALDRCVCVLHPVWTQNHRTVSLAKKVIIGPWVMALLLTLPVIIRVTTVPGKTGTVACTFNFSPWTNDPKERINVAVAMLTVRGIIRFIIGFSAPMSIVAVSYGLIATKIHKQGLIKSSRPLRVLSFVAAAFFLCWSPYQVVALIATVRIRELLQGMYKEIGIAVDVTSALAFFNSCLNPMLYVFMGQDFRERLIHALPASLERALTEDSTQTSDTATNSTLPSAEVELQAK
Square brackets hold non-standard residues; d marks the D form. Peptide text beside a SMILES is read from it.
Each record here notes measured Ki.
property_label: Ki

>>> recorded_measurement("CSCC[C@H](NC(=O)[C@H](Cc1ccc(O)cc1)NC(=O)[C@H](CCCCN)NC(=O)[C@@H](N)Cc1c[nH]c2ccccc12)C(=O)N[C@@H](Cc1ccc(O)cc1)C(=O)N[C@H](CCSC)C(N)=O [WKYMYm-NH2] (H-WKYMY[dM]-NH2)")
"671 nM"
>>> recorded_measurement("CSCC[C@H](NC(=O)[C@H](Cc1c[nH]cn1)NC(=O)[C@H](CCCCN)NC(=O)[C@@H](N)Cc1c[nH]c2ccccc12)C(=O)N[C@H](C(=O)N[C@H](CCSC)C(N)=O)C(C)C [WKHMVm-NH2] (H-WKHMV[dM]-NH2)")
"282 nM"
